# Tested on: HL-60(TB) leukemia
# ASSAY NAME: NCI-60 one-dose screen, 48 h
# REPORTED CONDITIONS: 10 µM unless noted
About 83,000 compounds went through this panel and 20% of them were active in at least one assay; those are over-represented in the sample as a whole. The source made the active and inactive calls. How the source made its calls: active means growth percent below 10; inactive means the rest.
Hello, when you answer, please use one of the following outcomes: true (1) for active, false (0) for inactive

• COC(=O)[C@]12CC[C@@H](C)[C@H](C)[C@@H]1C1=CC[C@@H]3[C@@]4(C)C(C=O)=C[C@@](C)(CO)[C@@H]4[C@H](O)C[C@@]3(C)[C@]1(C)CC2 = true (1)
• Cc1cc(Nc2ncc(Cl)c(Nc3ccccc3S(=O)(=O)C(C)C)n2)c(OC(C)C)cc1C1CCNCC1 = true (1)
• Nc1ccc(-c2cc3c(NCc4ccccc4)ncnc3s2)cc1 = false (0)
• c1ccc(Nc2nnc(-c3cc(-c4cccnc4)n(-c4ccccc4)n3)s2)cc1 = false (0)
• COc1ccc(NCc2cn(-c3ccc(C(=O)O)cc3)nc2-c2ccc(C(=O)O)cc2)cc1C(F)(F)F = false (0)
• CCOC(=O)[C@@H]1CSC(CC)=C(C(=O)O)N1 = true (1)
• Fc1ccc(/C=C/[C@@H]2C[C@@H](F)CCO2)cc1 = false (0)
• CCOC(=O)c1cnc(SCc2ccc(Cl)c(Cl)c2)nc1N1CC1 = false (0)
• CC(/C=N/N=C(N)N)=N/N=C(N)N = false (0)

Now look at this entry.
Ask: Outcome logged for `CC(=O)CS(C)(=O)=O` in this assay:
Result: false (0)
